Below, each entry is listed with its recorded drug sensitivity score.
Tested on: MFM-223
procedureDetails: drug sensitivity score (DSS), CellTiter-Glo (DSS (AUC-based score)); higher = stronger drug effect (viability inhibition or cytotoxicity); extreme values may be limits of the assay
runParameters: incubation time: 72 h
A bare number is all that is needed in reply.

The cases that follow already have their drug sensitivity score on record.
structure	drug sensitivity score
CCOC(=O)CCNc1cc(N2CCc3ccccc3CC2)nc(-c2ccccn2)n1	12.5
Cc1ccc(NC(=O)c2ccc(CN3CCN(C)CC3)cc2)cc1Nc1nc(-c2cccnc2)cs1	0.34

Req: Report drug sensitivity score for `O=C(/C=C/c1cccc(S(=O)(=O)Nc2ccccc2)c1)NO` please.
Resp: 13.9

Req: Report drug sensitivity score for `COc1cc(OC2CCN(C)CC2)ccc1Nc1ncc2c(n1)n(C1CCCC1)c(=O)n2C` please.
Resp: 0

Req: Report drug sensitivity score for `COc1cc2ncnc(Nc3ccc(F)c(Cl)c3)c2cc1OCCCN1CCOCC1` please.
Resp: 0

* * *

Below, each entry is listed with its recorded normalised response.
System: SK-BR-3
procedureDetails: normalised response (% of control), CellTiter-Glo; higher = more viable cells (100 = DMSO, 0 = benzethonium chloride kill control)
runParameters: incubation time: 72 h

The cases that follow already have their normalised response on record.
molecule	normalised response
O=P1(N(CCCl)CCCl)NCCCO1 (stereo not given) [Cyclophosphamide] (4000 nM)	107%
COc1cc2/c(=N/c3ccc(Br)cc3F)nc[nH]c2cc1OCC1CCN(C)CC1 [Vandetanib] (1 nM)	68.2%
N#Cc1ccc(COC[C@H]2O[C@@H](n3c(NCc4ccc(Cl)c(Cl)c4)nc4c(N)ncnc43)[C@H](O)[C@@H]2O)cc1 (10 nM)	132%
N#Cc1ccc(COC[C@H]2O[C@@H](n3c(NCc4ccc(Cl)c(Cl)c4)nc4c(N)ncnc43)[C@H](O)[C@@H]2O)cc1 (1 nM)	109%

Turning now to a further molecule:
Req: Hi! What's the reported normalised response for COC(=O)c1ccc2c(c1)NC(=O)/C2=C(\Nc1ccc(N(C)C(=O)CN2CCN(C)CC2)cc1)c1ccccc1 [Nintedanib] (1000 nM) on SK-BR-3?
Resp: 86%

* * *

Test system: CAL-120
procedureDetails: drug sensitivity score (DSS), CellTiter-Blue viability (DSS (AUC-based score)); higher = stronger viability inhibition; extreme values may be limits of the assay
runParameters: incubation time: 72 h
Below, each entry is listed with its recorded drug sensitivity score.
A bare number is all that is needed in reply.

The cases that follow already have their drug sensitivity score on record.
compound	experimentalSystem	drug sensitivity score
Cc1ccc(NC(=O)c2ccc(CN3CCN(C)CC3)cc2)cc1Nc1nc(-c2cccnc2)cs1 [Masitinib]	CAL-120	0
Oc1ccc2c(c1)CC[C@H](c1ccccc1)[C@@H]2c1ccc(OCCN2CCCC2)cc1 [Lasofoxifene]	CAL-120	0
CN(C)CCOc1ccc(/C(=C(/CCCl)c2ccccc2)c2ccccc2)cc1 [Toremifene]	CAL-120	0
COc1cc2/c(=N/c3ccc(Br)cc3F)nc[nH]c2cc1OCC1CCN(C)CC1 [Vandetanib]	CAL-120	3.15
COc1cc(OC2CCN(C)CC2)ccc1Nc1ncc2c(n1)n(C1CCCC1)c(=O)n2C [AZ 3146]	CAL-120	0.478
COC(=O)c1ccc2c(c1)NC(=O)/C2=C(\Nc1ccc(N(C)C(=O)CN2CCN(C)CC2)cc1)c1ccccc1 [BIBF 1120]	CAL-120	6.55

Turning now to a further compound:
Req: Report drug sensitivity score for COCC1(CO)C(=O)C2CCN1CC2 (configuration not stated) [Prima-1 Met] please.
Resp: 0

From: the supplement of paper PMC4862054
